B1: KRT18 (parent)
chain: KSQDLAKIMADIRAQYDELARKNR

Variants of: B1
test.details: protein stability index of a GFP-peptide fusion (GPS, HEK-293T) (PSI 1-6); higher = more stable;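 further: lentivirally expressed fusions sorted by FACS into six bins by GFP to DsRed ratio, PSI derived from sequencing read proportions per bin multiplied by bin number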
condition.context: c terminus: a fixed tail appended
# protein stability index per entry
measurement.kind: protein stability index

item.sequence | recorded.number
KSQDLAAIMADIRAQYDELARKNR [K7A] | 2.41
KSQDLAKIMANIRAQYDELARKNR [D11N] | 2.84
KSQDLAKIMADIFAQYDELARKNR [R13F] | 1.93
KSQDLAKIMADIRACYDELARKNR [Q15C] | 2.37
KSQDLAKIMADIRAQYDELYRKNR [A20Y] | 1.71
KSQDLAKIMADIRAQYDELARKNN [R24N] | 3.13
KSQDLAKIMADIRAQYDELAKKNR [R21K] | 2.9
KSQDLAKIMADIMAQYDELARKNR [R13M] | 1.83
KSQDLAKIMADNRAQYDELARKNR [I12N] | 4.26
KSQDLAKIMADIRAQYDELARKNL [R24L] | 1.69
KSQDLAKIMTDIRAQYDELARKNR [A10T] | 3.02
YSQDLAKIMADIRAQYDELARKNR [K1Y] | 2.2
KSMDLAKIMADIRAQYDELARKNR [Q3M] | 2.41
KSQDLAMIMADIRAQYDELARKNR [K7M] | 2.48
TSQDLAKIMADIRAQYDELARKNR [K1T] | 2.58
KSQDLAKIMADIRAQSDELARKNR [Y16S] | 3.88
KSQDLAKIMADIRAQYDELARCNR [K22C] | 2.32
KSQDLAKIMADIRAQMDELARKNR [Y16M] | 3.31
KSQWLAKIMADIRAQYDELARKNR [D4W] | 2.04
KSQDLADIMADIRAQYDELARKNR [K7D] | 2.76
KSQDLAKIMADGRAQYDELARKNR [I12G] | 4.45
KSQDWAKIMADIRAQYDELARKNR [L5W] | 2.62
KMQDLAKIMADIRAQYDELARKNR [S2M] | 2.04
KSQDLAKIMADIRAQYAELARKNR [D17A] | 2.54
KSQDLAKIMACIRAQYDELARKNR [D11C] | 1.73
KSQDLAKIMADIRAQLDELARKNR [Y16L] | 3.65
KSQDLAEIMADIRAQYDELARKNR [K7E] | 2.47
KSQDLAKTMADIRAQYDELARKNR [I8T] | 3.27
KSQDLAKIMADIRAQYSELARKNR [D17S] | 2.41
KSQDLAKIMADIRAQYDELVRKNR [A20V] | 2.85
KSQDLAKIMADIRAQYYELARKNR [D17Y] | 2.37
KSQDLAKIMADIRAQYDEGARKNR [L19G] | 3.44
KSQDLAKIMADIRAQWDELARKNR [Y16W] | 2.67
KSQNLAKIMADIRAQYDELARKNR [D4N] | 2.6
KSQDLAKIMADIRAQYTELARKNR [D17T] | 2.27
KSQDLAKIMFDIRAQYDELARKNR [A10F] | 2.41
KSQDLAKIMADIRAQYDELARDNR [K22D] | 3.35
KSQDLAKIMADIEAQYDELARKNR [R13E] | 3.75
KSQDLAKIMADSRAQYDELARKNR [I12S] | 4.36
KSQDLAKIMADIRAQYDELGRKNR [A20G] | 3.19
KSQDLAKIMADIRAQYDCLARKNR [E18C] | 2.45
KSQDLAKWMADIRAQYDELARKNR [I8W] | 2.4
KSQDLAKIKADIRAQYDELARKNR [M9K] | 3.8
KSQILAKIMADIRAQYDELARKNR [D4I] | 2.1
KSQDLAKIMADIRAQYDELARVNR [K22V] | 2.23
KSQDHAKIMADIRAQYDELARKNR [L5H] | 3.83
